# assayText: approximative toxicity, intraperitoneal (LD50)
# statedConditions: in vivo, ip; one intraperitoneal administration; read-out: Approximative toxicity LD50, 1xip
reportedProperty: LD50

Reference set (5 entries):
[
  {
    "smilesCode": "CC[C@@]1(O)C[C@H](O[C@H]2C[C@H](N(C)C)[C@H](OC(=O)c3ccccc3)[C@H](C)O2)c2c(O)c3c(c(O)c2[C@H]1O[C@H]1C[C@H](N(C)C)[C@H](OC(=O)c2ccccc2)[C@H](C)O1)C(=O)c1cccc(O)c1C3=O",
    "LD50": "> 100 mg/kg"
  },
  {
    "smilesCode": "CC[C@@]1(O)C[C@H](O[C@H]2C[C@H](N(C)C)[C@H](OC(=O)c3ccc([N+](=O)[O-])cc3)[C@H](C)O2)c2c(O)c3c(c(O)c2[C@H]1O)C(=O)c1cccc(O)c1C3=O",
    "LD50": "> 50 mg/kg"
  },
  {
    "smilesCode": "CC[C@@]1(O)CCc2c(O)c3c(c(O)c2[C@H]1O[C@H]1C[C@H](N(C)C)[C@H](OC(=O)c2ccccc2)[C@H](C)O1)C(=O)c1cccc(O)c1C3=O",
    "LD50": "1 to 10 mg/kg"
  },
  {
    "smilesCode": "CC[C@@]1(O)C[C@H](O[C@H]2C[C@H](N(C)C)[C@H](OC(C)=O)[C@H](C)O2)c2c(O)c3c(c(O)c2[C@H]1O[C@H]1C[C@H](N(C)C)[C@H](OC(C)=O)[C@H](C)O1)C(=O)c1cccc(O)c1C3=O",
    "LD50": "3.4 to 6.5 mg/kg"
  },
  {
    "smilesCode": "CC[C@@]1(O)C[C@H](O[C@H]2C[C@H](N(C)C)[C@H](OC(=O)c3ccc(OC)cc3)[C@H](C)O2)c2c(O)c3c(c(O)c2[C@H]1O[C@H]1C[C@H](N(C)C)[C@H](OC(=O)c2ccc(OC)cc2)[C@H](C)O1)C(=O)c1cccc(O)c1C3=O",
    "LD50": "> 100 mg/kg"
  }
]

Incoming: Record request: LD50 value, item CC[C@@]1(O)C[C@H](O[C@H]2C[C@H](N(C)C)[C@H](OC(=O)c3ccccc3)[C@H](C)O2)c2c(O)c3c(c(O)c2[C@H]1O)C(=O)c1cccc(O)c1C3=O
Outgoing: 1 to 10 mg/kg

Incoming: Record request: LD50 value, item CC[C@@]1(O)C[C@H](O[C@H]2C[C@H](N(C)C)[C@H](OC(C)=O)[C@H](C)O2)c2c(O)c3c(c(O)c2[C@H]1O)C(=O)c1cccc(O)c1C3=O
Outgoing: 1 to 10 mg/kg

Incoming: Record request: LD50 value, item CC[C@@]1(O)C[C@H](O[C@H]2C[C@H](N(C)C)[C@H](OC(=O)c3ccc(OC)cc3)[C@H](C)O2)c2c(O)c3c(c(O)c2[C@H]1O)C(=O)c1cccc(O)c1C3=O
Outgoing: 10 to 50 mg/kg

* * *

# assayText: approximative toxicity, intraperitoneal (LD50)
# statedConditions: in vivo, ip, three intraperitoneal administrations with an interval of three days between each; read-out: Approximative toxicity LD50, 3xip, q3d
Counter-ions that a name gives are not always drawn.
Overview of recorded LD50 for various compounds

Reference set (2 entries):
[
  {
    "compound": "CC[C@@]1(O)C[C@H](O[C@H]2C[C@H](N(C)C)[C@H](OC(=O)c3ccc(OC)cc3)[C@H](C)O2)c2c(O)c3c(c(O)c2[C@H]1O[C@H]1C[C@H](N(C)C)[C@H](O)[C@H](C)O1)C(=O)c1cccc(O)c1C3=O [Compound 12a]",
    "reportedProperty": "LD50",
    "recordedMeasurement": "10 to 15 mg/kg"
  },
  {
    "compound": "CC[C@@]1(O)C[C@H](O[C@H]2C[C@H](N(C)C)[C@H](O)[C@H](C)O2)c2c(O)c3c(c(O)c2[C@H]1O[C@H]1C[C@H](N(C)C)[C@H](OC(=O)c2ccc(OC)cc2)[C@H](C)O1)C(=O)c1cccc(O)c1C3=O [Compound 12b]",
    "reportedProperty": "LD50",
    "recordedMeasurement": "5.33 to 10.7 mg/kg"
  }
]

In the following, a different compound is considered.
Incoming: Record request: LD50 value, item CC[C@@]1(O)C[C@H](O[C@H]2C[C@H](N(C)C)[C@H](OC(=O)c3ccccc3)[C@H](C)O2)c2c(O)c3c(c(O)c2[C@H]1O[C@H]1C[C@H](N(C)C)[C@H](OC(=O)c2ccccc2)[C@H](C)O1)C(=O)c1cccc(O)c1C3=O [Compound 2, HCl adduct of compound 1]
Outgoing: > 85 mg/kg
